# Test system: Escherichia coli
# protocol-notes: Inhibition of multidrug resistance efflux pump in wild-type Escherichia coli AB1157 assessed as concentration required to reduce piperacillin MIC by 4-fold by checkerboard assay
observed-property: INH (µM)

- CC1(C)Cc2c(C#N)c(SCCc3cccc(C#N)c3)nc(N3CCOCC3)c2CO1: 3.9
- COCCN1CCN(c2nc(SCCc3ccc(OC)c(OC)c3)c(C#N)c3c2COC(C)(C)C3)CC1: 0.4
- CC1CN(c2nc(SCCc3cccnc3)c(C#N)c3c2COC(C)(C)C3)CC(C)O1 (stereo not drawn): 3.1
- CC1(C)Cc2c(C#N)c(SCCc3ccccc3)nc(N3CCCNCC3)c2CO1: 12.5
- CC1(C)Cc2c(C#N)c(SCCc3ccccc3)nc(N3CCOCC3)c2CO1: 3.1
- CC(=O)Oc1cccc(CCSc2nc(N3CCOCC3)c3c(c2C#N)CC(C)(C)OC3)c1: 1.6
- CN(C)c1nc(SCCc2ccccc2)c(C#N)c2c1COC(C)(C)C2: 9.4
- COc1ccc(CCSc2nc(N3CCOCC3)c3c(c2C#N)CC(C)(C)OC3)cc1OC: 0.8
- CC1(C)Cc2c(C#N)c(SCCc3cccc(Cl)c3)nc(N3CCOCC3)c2CO1: 3.1
- CC1(C)Cc2c(C#N)c(SCCc3ccccc3)nc(N3CCSCC3)c2CO1: 1.6
- CC1(C)Cc2c(C#N)c(SCCc3ccccn3)nc(N3CCOCC3)c2CO1: 25
- COCCN1CCN(c2nc(SCCc3cccc(F)c3)c(C#N)c3c2COC(C)(C)C3)CC1: 6.3
- CC1CN(c2nc(SCCc3ccc(NC(=O)OC(C)(C)C)cc3)c(C#N)c3c2COC(C)(C)C3)CC(C)O1 (stereo not drawn): 0.4
- CC1CN(c2nc(SCCc3ccc(NC(=N)N)cc3)c(C#N)c3c2COC(C)(C)C3)CC(C)O1 (stereo not drawn): 0.8
